- study system: neural stem cell surface (cell surface molecule(s) of NSCs, not identified) (rat (adult hippocampus, stated in Example 1))
- protocol summary: flow cytometry, GFP bacterial clone displaying the peptide on NSCs
% NSCs with Bacteria values for the binders below.
recorded metric: % NSCs with Bacteria (%)

                                   binder  result_number
 0     WFCLLGRSAYCVR [clone 7C-3 peptide]           71.9
 1    WVCNKLGVYACEY [clone 7C-19 peptide]           20.5
 2     GGCRWYAKWVCVW [clone Co-3 peptide]           75.7
 3  ESGLKVMCMKYYCMA [clone 15-52 peptide]           63.3
 4    VWCGMFGKRRCVT [clone Co-22 peptide]           75.6
 5    MYCERDSKYWCIH [clone Co-21 peptide]           70.9
 6     IWCGSRFGCWCKP [clone 7C-5 peptide]           65.6
 7    WWCDMRGDSRCSG [clone 7C-24 peptide]           61.7
 8     WDCGKKNAWMCIW [clone Co-5 peptide]           67.4
 9    QCCQLRGDAVCNC [clone 7C-15 peptide]             54
10   LEDAMGWALSWGHIW [clone 15-6 peptide]           70.2
11   WTWESAFAGRWEVGD [clone Co-8 peptide]           61.7
12    WMCSGVQPNACVW [clone 7C-22 peptide]           46.9
13  SDWSVLLSCERWYCI [clone 15-16 peptide]           63.9
14     YMCMSRGDATCDV [clone 7C-4 peptide]             62
15    WQCGRFWCIHCLW [clone Co-19 peptide]           50.6
